- Target System: T1, A beta 1-40 oligomer (synthetic A beta1-40, HCl form, 0.1 mg/ml in PBS, incubated at 37 degrees C for one … (UniProt P05067 672-711))
- T1 construct: domain: A beta 1-40; Non-fibrous assembly of many copies of the same peptide; also called A beta oligomer
- Experiment Description: SPR, Biacore 3000, A beta oligomer on CM5 chip, antibody as analyte
Label TRUE when koff is strictly below 0.002 s⁻¹; at or above that, label FALSE.

Past entries and their recorded results:
| Binder | Assigned Category |
| --- | --- |
| IR-130 antibody (antibody, V domains shown, Mouse monoclonal from a hybridoma) VH: EVKLVESGGGLVQPGGSLKLSCATSGFTFSDYYMYWVRQTPEKRLEWVAYISNGGGSTYYPDTVKGRFTISRDNAKNTLYLQMSRLKSEDTAMYYCARGTSYGSSLHYYAMDYWGQGTSVTVSS VL: DVVMTQTPLSLPVSLGDQASISCRSSQSLVHSNGNTYLHWYLQKPGQSPKLLIYKVSNRFSGVPDRFSGSGSGTDFTLKISRVEAEDLGVYFCSQSTHVPLTFGAGTKLELK | FALSE |
| IR-003 antibody (antibody, V domains shown, Mouse monoclonal from a hybridoma (BALB/c); constant regions are not) VH: QVTLKESGPGILQPSQTLSLTCSFSGFSLSTSGMGVSWIRQPSGKGLEWLAHIYWDDDKRYNPSLKSRLTISKDTSSNQVFLKITSVDTADTATYYCARRGEVRRRGYYAMDYWGQGTSVTVSS VL: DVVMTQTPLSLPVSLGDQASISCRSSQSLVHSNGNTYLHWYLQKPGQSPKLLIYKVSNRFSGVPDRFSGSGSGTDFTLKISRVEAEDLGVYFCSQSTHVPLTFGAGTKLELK | FALSE |
| IR-103 antibody (antibody, V domains shown, Mouse monoclonal from a hybridoma) VH: DVQLVESGGGLVQPGGSRKLSCAASGFTFSSFGMHWVRQAPEKGLEWVAYISSGSSTIYYADTVKGRFTISRDNPKNTLFLQMTSLRSEDTAMYYCARSPLLRLQGLAYWGQGTLVTVSA VL: DVLMTQTPLSLPVSLGDQASISCRSSQSIVHSNGNTYLEWYLQKPGQSPKLLIYKVSNRFSGVPDRFSGSGSGTDFTLKISRVEAEDLGVYYCFQGSHVPPTFGGGTKLEIK | FALSE |
| IR-099 antibody (antibody, V domains shown, Mouse monoclonal from a hybridoma) VH: DVQLVESGGGLVQPGGSRKLSCAASGFTFSRFGMHWVRQAPEKGLEWVAYISSGRSTIYYADTVKGRFTISRDNPKNTLFLQMTSLRSEDTAMYYCARGGGNYVGAMDYWGQGTSVTVSS VL: DAVMTQTPLSLPVSLGDQASISCRSSQSLENSNGNTYLNWYLQKPGQSPQLLIYRVSNRFSGVLDRFSGSGSGTDFTLKISRVEAEDLGVYFCLQVTHVPPTFGGGTKLEIK | FALSE |
| IR-091 antibody (antibody, V domains shown, Mouse monoclonal from a hybridoma) VH: QVTLKESGPGILKPSQTLSLTCSFSGFSLSTSGMGVGWIRQPSGKGLEWLAHIWWDDDKYYNPSLKSQLTISKDTSRNQVFLKITSVDTADTATYYCARRGLRRGDYFDYWGQGTTLTVSS VL: DVLMTQTPLSLPVSLGDQASISCRSSQSIVHSNGNTYLEWYLQKPGQSPKLLIYKVSNRFSGVPDRFSGSGSGTDFTLKISRVEAEDLGVYYCFQGSHVPLTFGAGTKLELK | TRUE |

Next:
Lookup: Could you please tell me whether koff recorded for IR-148 antibody (antibody, V domains shown, Mouse monoclonal from a hybridoma) VH: DVQLVESGGGLVQPGGSRKLSCAASGFTFSSFGMHWVRQAPEKGLEWVAYISSGSSTIYYADTVKGRFTISRDNPKNTLFLQMTSLRSEDTAMYYCARDYYGMDYWGQGTSVTVSS VL: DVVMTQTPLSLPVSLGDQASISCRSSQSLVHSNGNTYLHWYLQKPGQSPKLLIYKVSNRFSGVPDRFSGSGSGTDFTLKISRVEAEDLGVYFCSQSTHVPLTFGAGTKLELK is less than 0.002 s⁻¹?
Found: TRUE
